Data credit: paper PMC12135066

assay-text: Biodistribution studies in HEK-uPAR xenograft-bearing nude mice
condition-details: female, CD1/nude, mouse, liver, 5 MBq (0.5 nmol), total radioactivity, 24 h p.i.; 5 MBq, 0.5 nmol; decay-corrected; average ± SD, n=3 animals
endpoint-name: tissue uptake at 24 h (%ID/g)

>>> measured_number("CC(C)C[C@H](NC(=O)[C@H](Cc1ccc(O)cc1)NC(=O)[C@@H](CCCNC(=N)N)NC(=O)[C@@H](CO)NC(=O)[C@H](Cc1ccccc1)NC(=O)[C@H](CC1CCCCC1)NC(=O)[C@H](CC(=O)O)NC(=O)CN1CCN(CC(=O)O)CCN(CC(=O)O)CCN(CC(=O)O)CC1)C(=O)N[C@@H](Cc1c[nH]c2ccccc12)C(=O)N[C@@H](CO)C(N)=O [[^177Lu]Lu-DOTA-AE105, metal not drawn, reference compound]")
0.17
>>> measured_number("CC(C)C[C@H](NC(=O)[C@H](Cc1ccc(O)cc1)NC(=O)[C@@H](CCCNC(=N)N)NC(=O)[C@@H](CO)NC(=O)[C@H](Cc1ccccc1)NC(=O)[C@H](CC1CCCCC1)NC(=O)[C@H](CC(=O)O)NC(=O)[C@H](CCCCNC(=O)CCCc1ccc(I)cc1)NC(=O)[C@@H](N)CCCCNC(=O)CN1CCN(CC(=O)O)CCN(CC(=O)O)CCN(CC(=O)O)CC1)C(=O)N[C@@H](Cc1c[nH]c2ccccc12)C(=O)N[C@@H](CO)C(N)=O [[^177Lu]Lu-uPAR-04, metal not drawn]")
3.1
>>> measured_number("CC(C)C[C@H](NC(=O)[C@H](Cc1ccc(O)cc1)NC(=O)[C@@H](CCCNC(=N)N)NC(=O)[C@@H](CO)NC(=O)[C@H](Cc1ccccc1)NC(=O)[C@H](CC1CCCCC1)NC(=O)[C@H](CC(=O)O)NC(=O)CCOCCOCCOCCOCCNC(=O)[C@H](CCCCNC(=O)CCCc1ccc(I)cc1)NC(=O)CN1CCN(CC(=O)O)CCN(CC(=O)O)CCN(CC(=O)O)CC1)C(=O)N[C@@H](Cc1c[nH]c2ccccc12)C(=O)N[C@@H](CO)C(N)=O [[^177Lu]Lu-uPAR-05, metal not drawn]")
1.1
>>> measured_number("CC(C)C[C@H](NC(=O)[C@H](Cc1ccc(O)cc1)NC(=O)[C@@H](CCCNC(=N)N)NC(=O)[C@@H](CO)NC(=O)[C@H](Cc1ccccc1)NC(=O)[C@H](CC1CCCCC1)NC(=O)[C@H](CC(=O)O)NC(=O)[C@H](CCCCNC(=O)CCCc1ccc(I)cc1)NC(=O)CN1CCN(CC(=O)O)CCN(CC(=O)O)CCN(CC(=O)O)CC1)C(=O)N[C@@H](Cc1c[nH]c2ccccc12)C(=O)N[C@@H](CO)C(N)=O [[^177Lu]Lu-uPAR-01, metal not drawn]")
1.8

###

assay-text: Biodistribution studies in HEK-uPAR xenograft-bearing nude mice
condition-details: female, CD1/nude, mouse, spleen, 5 MBq (0.5 nmol), total radioactivity, 24 h p.i.; 5 MBq, 0.5 nmol; decay-corrected; average ± SD, n=3 animals
Measured tissue uptake at 24 h, listed per entry for reference.
endpoint-name: tissue uptake at 24 h (%ID/g)

>>> measured_number("CC(C)C[C@H](NC(=O)[C@H](Cc1ccc(O)cc1)NC(=O)[C@@H](CCCNC(=N)N)NC(=O)[C@@H](CO)NC(=O)[C@H](Cc1ccccc1)NC(=O)[C@H](CC1CCCCC1)NC(=O)[C@H](CC(=O)O)NC(=O)CCOCCOCCOCCOCCNC(=O)[C@H](CCCCNC(=O)CCCc1ccc(I)cc1)NC(=O)CN1CCN(CC(=O)O)CCN(CC(=O)O)CCN(CC(=O)O)CC1)C(=O)N[C@@H](Cc1c[nH]c2ccccc12)C(=O)N[C@@H](CO)C(N)=O [[^177Lu]Lu-uPAR-05, metal not drawn]")
0.82
>>> measured_number("CC(C)C[C@H](NC(=O)[C@H](Cc1ccc(O)cc1)NC(=O)[C@@H](CCCNC(=N)N)NC(=O)[C@@H](CO)NC(=O)[C@H](Cc1ccccc1)NC(=O)[C@H](CC1CCCCC1)NC(=O)[C@H](CC(=O)O)NC(=O)[C@H](CCCCNC(=O)CCCc1ccc(I)cc1)NC(=O)CN1CCN(CC(=O)O)CCN(CC(=O)O)CCN(CC(=O)O)CC1)C(=O)N[C@@H](Cc1c[nH]c2ccccc12)C(=O)N[C@@H](CO)C(N)=O [[^177Lu]Lu-uPAR-01, metal not drawn]")
1.7
>>> measured_number("CC(C)C[C@H](NC(=O)[C@H](Cc1ccc(O)cc1)NC(=O)[C@@H](CCCNC(=N)N)NC(=O)[C@@H](CO)NC(=O)[C@H](Cc1ccccc1)NC(=O)[C@H](CC1CCCCC1)NC(=O)[C@H](CC(=O)O)NC(=O)CN1CCN(CC(=O)O)CCN(CC(=O)O)CCN(CC(=O)O)CC1)C(=O)N[C@@H](Cc1c[nH]c2ccccc12)C(=O)N[C@@H](CO)C(N)=O [[^177Lu]Lu-DOTA-AE105, metal not drawn, reference compound]")
0.23
>>> measured_number("CC(C)C[C@H](NC(=O)[C@H](Cc1ccc(O)cc1)NC(=O)[C@@H](CCCNC(=N)N)NC(=O)[C@@H](CO)NC(=O)[C@H](Cc1ccccc1)NC(=O)[C@H](CC1CCCCC1)NC(=O)[C@H](CC(=O)O)NC(=O)[C@H](CCCCNC(=O)CCCc1ccc(I)cc1)NC(=O)[C@@H](N)CCCCNC(=O)CN1CCN(CC(=O)O)CCN(CC(=O)O)CCN(CC(=O)O)CC1)C(=O)N[C@@H](Cc1c[nH]c2ccccc12)C(=O)N[C@@H](CO)C(N)=O [[^177Lu]Lu-uPAR-04, metal not drawn]")
2.3

###

assay-text: in vitro
condition-details: mouse, plasma
Measured remaining at 24 h, 10 MBq/200 µL, listed per entry for reference.
endpoint-name: remaining at 24 h, 10 MBq/200 µL (%)

>>> measured_number("CC(C)C[C@H](NC(=O)[C@H](Cc1ccc(O)cc1)NC(=O)[C@@H](CCCNC(=N)N)NC(=O)[C@@H](CO)NC(=O)[C@H](Cc1ccccc1)NC(=O)[C@H](CC1CCCCC1)NC(=O)[C@H](CC(=O)O)NC(=O)[C@H](CCCCNC(=O)CCOCCOCCOCCOCCNC(=O)CCCc1ccc(I)cc1)NC(=O)CN1CCN(CC(=O)O)CCN(CC(=O)O)CCN(CC(=O)O)CC1)C(=O)N[C@@H](Cc1c[nH]c2ccccc12)C(=O)N[C@@H](CO)C(N)=O [[^177Lu]Lu-uPAR-02, metal not drawn]")
98
>>> measured_number("CC(C)C[C@H](NC(=O)[C@H](Cc1ccc(O)cc1)NC(=O)[C@@H](CCCNC(=N)N)NC(=O)[C@@H](CO)NC(=O)[C@H](Cc1ccccc1)NC(=O)[C@H](CC1CCCCC1)NC(=O)[C@H](CC(=O)O)NC(=O)[C@H](CCCCNC(=O)CCOCCOCCOCCOCCNC(=O)c1ccc(CNC(=O)CCCc2ccc(I)cc2)cc1)NC(=O)CN1CCN(CC(=O)O)CCN(CC(=O)O)CCN(CC(=O)O)CC1)C(=O)N[C@@H](Cc1c[nH]c2ccccc12)C(=O)N[C@@H](CO)C(N)=O [[^177Lu]Lu-uPAR-03, metal not drawn]")
98

###

assay-text: in vivo
condition-details: female, CD1/nude (Crl:CD1-Foxn nu), mouse, 0.5 nmol, total radioactivity, HEK-uPAR xgft
endpoint-name: tissue uptake at 4 h (%ID/g)

>>> measured_number("CC(C)C[C@H](NC(=O)[C@H](Cc1ccc(O)cc1)NC(=O)[C@@H](CCCNC(=N)N)NC(=O)[C@@H](CO)NC(=O)[C@H](Cc1ccccc1)NC(=O)[C@H](CC1CCCCC1)NC(=O)[C@H](CC(=O)O)NC(=O)[C@H](CCCCNC(=O)CCOCCOCCOCCOCCNC(=O)CCCc1ccc(I)cc1)NC(=O)CN1CCN(CC(=O)O)CCN(CC(=O)O)CCN(CC(=O)O)CC1)C(=O)N[C@@H](Cc1c[nH]c2ccccc12)C(=O)N[C@@H](CO)C(N)=O [[^177Lu]Lu-uPAR-02, metal not drawn]")
11

###

Test system: HEK-uPAR xenograft-bearing nude mice
assay-text: Biodistribution studies in HEK-uPAR xenograft-bearing nude mice
condition-details: 4 h p.i.; average ± SD, n=3 animals
endpoint-name: Xenograft-to-kidney ratio

>>> measured_number("CC(C)C[C@H](NC(=O)[C@H](Cc1ccc(O)cc1)NC(=O)[C@@H](CCCNC(=N)N)NC(=O)[C@@H](CO)NC(=O)[C@H](Cc1ccccc1)NC(=O)[C@H](CC1CCCCC1)NC(=O)[C@H](CC(=O)O)NC(=O)CN1CCN(CC(=O)O)CCN(CC(=O)O)CCN(CC(=O)O)CC1)C(=O)N[C@@H](Cc1c[nH]c2ccccc12)C(=O)N[C@@H](CO)C(N)=O [[^177Lu]Lu-DOTA-AE105, metal not drawn, reference compound]")
0.58
>>> measured_number("CC(C)C[C@H](NC(=O)[C@H](Cc1ccc(O)cc1)NC(=O)[C@@H](CCCNC(=N)N)NC(=O)[C@@H](CO)NC(=O)[C@H](Cc1ccccc1)NC(=O)[C@H](CC1CCCCC1)NC(=O)[C@H](CC(=O)O)NC(=O)[C@H](CCCCNC(=O)CCCc1ccc(I)cc1)NC(=O)[C@@H](N)CCCCNC(=O)CN1CCN(CC(=O)O)CCN(CC(=O)O)CCN(CC(=O)O)CC1)C(=O)N[C@@H](Cc1c[nH]c2ccccc12)C(=O)N[C@@H](CO)C(N)=O [[^177Lu]Lu-uPAR-04, metal not drawn]")
0.62
>>> measured_number("CC(C)C[C@H](NC(=O)[C@H](Cc1ccc(O)cc1)NC(=O)[C@@H](CCCNC(=N)N)NC(=O)[C@@H](CO)NC(=O)[C@H](Cc1ccccc1)NC(=O)[C@H](CC1CCCCC1)NC(=O)[C@H](CC(=O)O)NC(=O)[C@H](CCCCNC(=O)CCCc1ccc(I)cc1)NC(=O)CN1CCN(CC(=O)O)CCN(CC(=O)O)CCN(CC(=O)O)CC1)C(=O)N[C@@H](Cc1c[nH]c2ccccc12)C(=O)N[C@@H](CO)C(N)=O [[^177Lu]Lu-uPAR-01, metal not drawn]")
1.6
>>> measured_number("CC(C)C[C@H](NC(=O)[C@H](Cc1ccc(O)cc1)NC(=O)[C@@H](CCCNC(=N)N)NC(=O)[C@@H](CO)NC(=O)[C@H](Cc1ccccc1)NC(=O)[C@H](CC1CCCCC1)NC(=O)[C@H](CC(=O)O)NC(=O)CCOCCOCCOCCOCCNC(=O)[C@H](CCCCNC(=O)CCCc1ccc(I)cc1)NC(=O)CN1CCN(CC(=O)O)CCN(CC(=O)O)CCN(CC(=O)O)CC1)C(=O)N[C@@H](Cc1c[nH]c2ccccc12)C(=O)N[C@@H](CO)C(N)=O [[^177Lu]Lu-uPAR-05, metal not drawn]")
1.4
